Please go through the items and note down their CLint scaled at 1 µM.
Assay: Intrinsic clearance in human liver microsomes at 1 uM preincubated with microsomes followed by NADPH addition measured up to 45 mins by LC-MS/MS analysis
Format: ADME
Details: read-out: CLH
Give the quantity in mL/min/kg, number only.

Give its CLint scaled at 1 µM value. Item: COc1ccc(C(=O)NCc2cc(C(C)C)no2)cc1OC1CCN(C)CC1 10.4

Give its CLint scaled at 1 µM value. Item: CC(C)c1cc(CNC(=O)c2ccc(Cl)c(OC3CCN(C)CC3)c2)on1 10.4

====

Molecular target: High affinity choline transporter 1 (Homo sapiens) (UniProt Q9GZV3)
Sequence (whole entry): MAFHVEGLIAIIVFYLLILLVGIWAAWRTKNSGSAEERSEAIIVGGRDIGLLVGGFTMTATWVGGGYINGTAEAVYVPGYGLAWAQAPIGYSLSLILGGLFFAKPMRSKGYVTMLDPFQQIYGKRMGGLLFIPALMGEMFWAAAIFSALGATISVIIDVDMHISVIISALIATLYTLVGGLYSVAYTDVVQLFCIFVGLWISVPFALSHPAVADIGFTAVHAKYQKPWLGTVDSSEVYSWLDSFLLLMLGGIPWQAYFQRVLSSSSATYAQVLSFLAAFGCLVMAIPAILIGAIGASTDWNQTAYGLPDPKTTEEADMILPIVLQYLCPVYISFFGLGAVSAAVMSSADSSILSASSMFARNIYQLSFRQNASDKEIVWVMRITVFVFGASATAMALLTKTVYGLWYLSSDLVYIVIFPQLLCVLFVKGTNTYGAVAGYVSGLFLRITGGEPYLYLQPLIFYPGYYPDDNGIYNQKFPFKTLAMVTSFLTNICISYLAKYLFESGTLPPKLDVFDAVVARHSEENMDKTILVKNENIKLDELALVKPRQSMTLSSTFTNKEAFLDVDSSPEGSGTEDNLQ
Assay: Inhibition of [3H]choline uptake at human choline transporter expressed in HEK293 cells at 5 uM preincubated for 15 mins followed by [3H]choline addition measured after 10 to 15 mins by scintillation proximity assay relative to control
Format: cell-based
property_name: inhibition

Give its inhibition value. Item: CC(C)c1cc(CNC(=O)c2cccc(OC3CCN(C)CC3)c2)on1 > 50%

Give its inhibition value. Item: CC(C)c1cc(CNC(=O)c2ccc(Cl)c(OC3CCN(C)CC3)c2)on1 > 50%

Give its inhibition value. Item: CC(C)c1cc(CNC(=O)c2cccc(OC3CCN(C(C)C)CC3)c2)on1 > 50%

Give its inhibition value. Item: CC(C)c1cc(CNC(=O)c2ccc(C(F)(F)F)c(OC3CCN(C)CC3)c2)on1 > 50%

Give its inhibition value. Item: CC(C)c1cc(CNC(=O)c2ccc(F)c(OC3CCN(C)CC3)c2)on1 > 50%

Give its inhibition value. Item: CC(C)c1cc(CNC(=O)c2ccc(C#N)c(OC3CCN(C)CC3)c2)on1 > 50%

Just for reference, ChEMBL document CHEMBL3860045 is where these values come from.
